system: HOP-62; test: relative viability (nuclei count vs DMSO), 5 days (fraction); higher = more cells survive; settings: first compound 2 µM
Here, each record is paired with measured relative viability data.
Give the figure only, with no unit attached.

Worked examples, 3 molecules total:
CN1CCN(CCOc2cc(OC3CCOCC3)c3c(Nc4c(Cl)ccc5c4OCO5)ncnc3c2)CC1 [Saracatinib] + C[C@]1(O)C[C@@H](c2nc(-c3ccc4ccc(-c5ccccc5)nc4c3)c3c(N)nccn32)C1 [Linsitinib] (partner 1 µM) : 1.01
CN1CCN(CCOc2cc(OC3CCOCC3)c3c(Nc4c(Cl)ccc5c4OCO5)ncnc3c2)CC1 [Saracatinib] + CC(=O)Nc1cccc(-n2c(=O)n(C3CC3)c(=O)c3c(Nc4ccc(I)cc4F)n(C)c(=O)c(C)c32)c1 [Trametinib] (partner 0.02 µM) : 0.398
CN1CCN(CCOc2cc(OC3CCOCC3)c3c(Nc4c(Cl)ccc5c4OCO5)ncnc3c2)CC1 [Saracatinib] + CS(=O)(=O)N1CCN(Cc2cc3nc(-c4cccc5[nH]ncc45)nc(N4CCOCC4)c3s2)CC1 [Pictilisib] (partner 1 µM) : 0.605

Now for a further molecule.
Input: Tell me measured relative viability for CN1CCN(CCOc2cc(OC3CCOCC3)c3c(Nc4c(Cl)ccc5c4OCO5)ncnc3c2)CC1 [Saracatinib] + CC(C)C[C@H](NC(=O)[C@H](Cc1ccccc1)NC(=O)c1cnccn1)B(O)O [Bortezomib] (partner 0.002 µM) please.
Output: 1.06
